These data points were gathered from patent US8309685B2.

Biological target: A156T mutant of the HCV NS3/4A 1b protease enzyme (Hepatitis C virus genotype 1b, UniProt P26663, A1182T)
Construct: 10× stocks of NS3/4A protease enzyme from Bioenza (Mountain View, Calif.); purchased Bioenza (Mountain View, Calif.)
Test: HCV Protease FRET Assay (IC50_APP), A156T mutant
Type: biochemical
Conditions: apparent IC50, A156T mutant; read-out: IC50_APP, HCV A156T
Method: HCV Protease FRET Assay for WT and Mutated NS3/4A 1b Enzymes (IC50—APP). The following protocol was used to generate “apparent” IC50 (IC50—APP) values as depicted in Table 6, below. […] Protease reactions were immediately started after enzyme addition with the addition of 45 μL of the FRET substrate and monitored for 60-90 minutes at λex485/λem520 in a Synergy^4 plate reader from BioTek (Winooski, Vt.). […]
pIC50: −log10 of the molar value.
A collection of compounds and their measured pIC50
ENDPOINT: pIC50

compound=C=CC(=O)NC[C@@H]1NC(=O)OCCC/C=C/c2ccc3ccnc(c3c2)O[C@@H]2C[C@@H](C(=O)N[C@]3(C(=O)NS(=O)(=O)C4CC4)C[C@H]3C=C)N(C2)C1=O endpoint=pIC50 assay_value="6.00 to 7.00"
compound=C=C[C@@H]1C[C@]1(NC(=O)[C@@H]1C[C@@H](Oc2cc(-c3ccccc3)nc3cc(OC)ccc23)CN1C(=O)[C@H](CN(C)C(=O)[C@H](Cl)c1ccccc1)NC(=O)OC(C)(C)C)C(=O)NS(=O)(=O)c1ccccc1 endpoint=pIC50 assay_value="5.00 to 6.00"
compound=C=CC(=O)NCC(=O)N1C[C@H](Oc2cc(-c3ccccc3)nc3cc(OC)ccc23)C[C@H]1C(=O)N[C@]1(C(=O)NS(=O)(=O)C2CC2)C[C@H]1C=C endpoint=pIC50 assay_value="7.00 to 8.00"
compound=C=CC(=O)NC[C@H](NC(=O)OC1CCCC1)C(=O)N1C[C@H](Oc2cc(-c3ccccc3)nc3cc(OC)ccc23)C[C@H]1C(=O)N[C@]1(C(=O)NS(=O)(=O)C2CC2)C[C@H]1C=C endpoint=pIC50 assay_value="6.00 to 7.00"
compound=C=CC(=O)N[C@@H](C(=O)N1C[C@H](Oc2cc(-c3ccccc3)nc3cc(OC)ccc23)C[C@H]1C(=O)N[C@]1(C(=O)NS(=O)(=O)C2CC2)C[C@H]1C=C)C(C)(C)C endpoint=pIC50 assay_value="5.00 to 6.00"
compound=C=CC(=O)N(C)C[C@H](NC(=O)OC(C)(C)C)C(=O)N1C[C@H](Oc2cc(-c3ccccc3)nc3cc(OC)ccc23)C[C@H]1C(=O)N[C@]1(C(=O)NS(=O)(=O)c2ccccc2)C[C@H]1C=C endpoint=pIC50 assay_value="5.00 to 6.00"
compound=C=CC(=O)N[C@@H](C(=O)N1C[C@H](Oc2cc(-c3ccccc3)nc3cc(OC)ccc23)C[C@H]1C(=O)N[C@]1(C(=O)NS(=O)(=O)C2CC2)C[C@H]1C=C)c1ccccc1 endpoint=pIC50 assay_value="6.00 to 7.00"
compound=C=C[C@@H]1C[C@]1(NC(=O)[C@@H]1C[C@@H](Oc2cc(-c3ccccc3)nc3cc(OC)ccc23)CN1C(=O)[C@H](CCC(=O)N1CCC1=O)NC(=O)OC(C)(C)C)C(=O)NS(=O)(=O)C1CC1 endpoint=pIC50 assay_value="> 8.00"
compound="C=C[C@@H]1C[C@]1(NC(=O)[C@@H]1C[C@@H](Oc2cc(-c3ccccc3)nc3cc(OC)ccc23)CN1C(=O)[C@H](CNC(=O)C(C)Br)NC(=O)OC(C)(C)C)C(=O)NS(=O)(=O)c1ccccc1 (stereo partly drawn)" endpoint=pIC50 assay_value="5.00 to 6.00"
compound=C=C[C@@H]1C[C@]1(NC(=O)[C@@H]1C[C@@H](Oc2cc(-c3ccccc3)nc3cc(OC)ccc23)CN1C(=O)[C@@H](NC(=O)OC(C)(C)C)[C@@H](C)OC(=O)/C=C/C)C(=O)NS(=O)(=O)C1CC1 endpoint=pIC50 assay_value="6.00 to 7.00"
compound=C=CC(=O)NC[C@H](NC(=O)OC(C)(C)C)C(=O)N1C[C@H](Oc2nccc3ccc(Br)cc23)C[C@H]1C(=O)N[C@]1(C(=O)NS(=O)(=O)C2CC2)C[C@H]1C=C endpoint=pIC50 assay_value="7.00 to 8.00"
compound=C=CC(=O)N[C@H](C)C(=O)N1C[C@H](Oc2nccc3ccc(Br)cc23)C[C@H]1C(=O)N[C@]1(C(=O)NS(=O)(=O)C2CC2)C[C@H]1C=C endpoint=pIC50 assay_value="7.00 to 8.00"
compound=C=CC(=O)NCC(=O)N1C[C@H](Oc2cc(-c3ccccc3)nc3cc(OC)ccc23)C[C@H]1C(=O)N[C@]1(C(=O)NS(=O)(=O)c2ccccc2)C[C@H]1C=C endpoint=pIC50 assay_value="6.00 to 7.00"
compound=C=C[C@@H]1C[C@]1(NC(=O)[C@@H]1C[C@@H](Oc2cc(-c3ccccc3)nc3cc(OC)ccc23)CN1C(=O)CNC(=O)c1ccc([N+](=O)[O-])cc1F)C(=O)NS(=O)(=O)c1ccccc1 endpoint=pIC50 assay_value="5.00 to 6.00"
compound=C=CC(=O)N[C@H](C(=O)N1C[C@H](Oc2cc(-c3ccccc3)nc3cc(OC)ccc23)C[C@H]1C(=O)N[C@]1(C(=O)NS(=O)(=O)c2ccccc2)C[C@H]1C=C)C(C)C endpoint=pIC50 assay_value="6.00 to 7.00"
compound=C#Cc1ccc(S(=O)(=O)NC(=O)[C@@]2(NC(=O)[C@@H]3C[C@@H](Oc4cc(-c5ccccc5)nc5cc(OC)ccc45)CN3C(=O)[C@H](CNC(=O)C=C)NC(=O)OC(C)(C)C)C[C@H]2C=C)cc1 endpoint=pIC50 assay_value="5.00 to 6.00"
compound=C=CC(=O)N(C)CC[C@H](NC(=O)OC(C)(C)C)C(=O)N1C[C@H](Oc2cc(-c3ccccc3)nc3cc(OC)ccc23)C[C@H]1C(=O)N[C@]1(C(=O)NS(=O)(=O)c2ccccc2)C[C@H]1C=C endpoint=pIC50 assay_value="5.00 to 6.00"
compound=C=C[C@@H]1C[C@]1(NC(=O)[C@@H]1C[C@@H](Oc2cc(-c3ccccc3)nc3cc(OC)ccc23)CN1C(=O)[C@H](Cc1ccc(F)c([N+](=O)[O-])c1)NC(=O)OC(C)(C)C)C(=O)NS(=O)(=O)c1ccccc1 endpoint=pIC50 assay_value="5.00 to 6.00"

====

Biological target: wild type HCV NS3/4A 1b protease enzyme (Hepatitis C virus genotype 1b)
Construct: 10× stocks of NS3/4A protease enzyme from Bioenza (Mountain View, Calif.); purchased Bioenza (Mountain View, Calif.)
Assay: HCV Protease FRET Assay (IC50_APP), wild type
Assay type: biochemical
Settings: read-out: IC50_APP, WT; apparent IC50, wild type NS3/4A 1b
Listing: IC50 of selected compounds
ENDPOINT: IC50

structure_notation=C=CC(=O)N(C)CC[C@H](NC(=O)OC(C)(C)C)C(=O)N1C[C@H](Oc2cc(-c3ccccc3)nc3cc(OC)ccc23)C[C@H]1C(=O)N[C@]1(C(=O)NS(=O)(=O)c2ccccc2)C[C@H]1C=C endpoint=IC50 assay_value="< 0.01 µM"
structure_notation=C=C[C@@H]1C[C@]1(NC(=O)[C@@H]1C[C@@H](Oc2nccc3cc(OC)ccc23)CN1C(=O)[C@H](CCC(=O)C#CC(C)(C)C)NC(=O)OC(C)(C)C)C(=O)NS(=O)(=O)C1CC1 endpoint=IC50 assay_value="< 0.01 µM"
structure_notation=C=CC(=O)NC[C@H](NC(=O)OC(C)(C)C)C(=O)N1C[C@H](Oc2nc3ccccc3nc2-c2cccs2)C[C@H]1C(=O)N[C@]1(C(=O)NS(=O)(=O)C2CC2)C[C@H]1C=C endpoint=IC50 assay_value="< 0.01 µM"
structure_notation=C=CC(=O)NCC(=O)N1C[C@H](Oc2cc(-c3ccccc3)nc3cc(OC)ccc23)C[C@H]1C(=O)N[C@]1(C(=O)NS(=O)(=O)c2ccccc2)C[C@H]1C=C endpoint=IC50 assay_value="< 0.01 µM"
structure_notation=C=CC(=O)NC[C@H](NC(=O)OC1CCCC1)C(=O)N1C[C@H](Oc2cc(-c3ccccc3)nc3cc(OC)ccc23)C[C@H]1C(=O)N[C@]1(C(=O)NS(=O)(=O)C2CC2)C[C@H]1C=C endpoint=IC50 assay_value="< 0.01 µM"
structure_notation=C=CC(=O)NC[C@H](NC(=O)CCCC[C@H]1SC[C@H]2NC(=O)N[C@H]21)C(=O)N1C[C@H](Oc2nccc3cc(OC)ccc23)C[C@H]1C(=O)N[C@]1(C(=O)NS(=O)(=O)C2CC2)C[C@H]1C=C endpoint=IC50 assay_value="0.01 to 0.1 µM"
structure_notation=C=CC(=O)N[C@H](C(=O)N1C[C@H](Oc2cc(-c3ccccc3)nc3cc(OC)ccc23)C[C@H]1C(=O)N[C@]1(C(=O)NS(=O)(=O)c2ccccc2)C[C@H]1C=C)C(C)C endpoint=IC50 assay_value="0.01 to 0.1 µM"
structure_notation=C=C[C@@H]1C[C@]1(NC(=O)[C@@H]1C[C@@H](Oc2cc(-c3ccccc3)nc3cc(OC)ccc23)CN1C(=O)[C@H](CN(C)C(=O)/C=C/CN(C)C)NC(=O)OC(C)(C)C)C(=O)NS(=O)(=O)c1ccccc1 endpoint=IC50 assay_value="0.01 to 0.1 µM"
structure_notation=C#Cc1ccc(S(=O)(=O)NC(=O)[C@@]2(NC(=O)[C@@H]3C[C@@H](Oc4cc(-c5ccccc5)nc5cc(OC)ccc45)CN3C(=O)[C@H](CNC(=O)C=C)NC(=O)OC(C)(C)C)C[C@H]2C=C)cc1 endpoint=IC50 assay_value="0.01 to 0.1 µM"
